- assay system: T1, MADY
- T1 chain: MADY
reported endpoint: Specific activity (unit/mg)
Number in unit/mg, nothing else.

For the protein MetAP-M206T-Q233G (protein) AISIKTPEDIEKMRVAGRLAAEVLEMIEPYVKPGVSTGELDRICNDYIVNEQHAVSACLGYHGYPKSVCISINEVVCHGIPDDAKLLKDGDIVNIDVTVIKDGFHGDTSKMFIVGKPTIMGERLCRITQESLYLALRMVKPGINLREIGAAIQKFVEAEGFSVVREYCGHGIGRGFHEEPQVLHYDSRETNVVLKPGMTFTIEPTVNAGKKEIRTMKDGWTVKTKDRSLSAGYEHTIVVTDNGCEILTLRKDDTIPAIISHDE , what Specific activity (unit/mg) is on record?
72

Numbers sourced from patent US20050214899.
